FYI, the data here is from patent US20220127281A1.

# test system: GDP loaded biotinylated KRas^G12C protein (Homo sapiens, UniProt P01116, G12C)
# Construct: biotin (biotinylated); made in house
# Sequence (P01116 1-188 isoform P01116-2 G12C): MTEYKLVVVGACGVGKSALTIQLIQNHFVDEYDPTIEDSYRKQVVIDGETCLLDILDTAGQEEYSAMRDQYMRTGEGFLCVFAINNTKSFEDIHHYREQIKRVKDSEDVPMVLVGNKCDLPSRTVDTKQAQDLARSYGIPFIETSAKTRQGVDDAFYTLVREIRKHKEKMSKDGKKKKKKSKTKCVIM
# test details: KRasG12C mass spectrometry adducting assay
# Assay type: binding
# cond: test compound final concentration 10 μM, 4 μM KRasG12C, react for 4 hours
property name: KRasG12C M.S. Binding Mean adduct % (%)

P = C=CC(=O)N1CCN2c3ncnc4cc(-c5cccc(NC(C)=O)c5)c(Cl)c(c34)OC[C@@H]2C1
Q = C=CC(=O)N1CCN2c3ncnc4cc(-c5c(O)cccc5OC)c(Cl)c(c34)OC[C@@H]2C1 (single isomer, unassigned) [Example 18]
Incoming: Identify the entry with the smaller KRasG12C M.S. Binding Mean adduct %: P or Q . To answer, give the label that identifies your chosen option.
Outgoing: P
(P: 20%, Q: 100%)

----------
# test system: GDP loaded biotinylated KRas^G12C protein (Homo sapiens, UniProt P01116, G12C)
# Construct: biotin (biotinylated); made in house
# test details: KRasG12C functional assay
# Type: biochemical
# cond: HTRF FRET readout of SOS-mediated nucleotide exchange and GST-Raf RBD binding; samples incubated for 4 hrs; read-out: KRasG12C functional assay IC50 value
pIC50: −log10 of the molar value.
property name: pIC50

Some solved cases for reference:
molecule	test system	pIC50
C=CC(=O)N1CCN2c3ncnc4cc(-c5ccccc5C#N)c(Cl)c(c34)OC[C@@H]2C1	GDP loaded biotinylated KRas^G12C protein (Homo sapiens, UniProt P01116, G12C)	5.83
C=CC(=O)N1CCN2c3ncnc4cc(-c5cc(CO)ccc5F)c(Cl)c(c34)OC[C@@H]2C1	GDP loaded biotinylated KRas^G12C protein (Homo sapiens, UniProt P01116, G12C)	5.89
C=CC(=O)N1CCN2c3ncnc4cc(-c5ccccc5CC(N)=O)c(Cl)c(c34)OC[C@@H]2C1	GDP loaded biotinylated KRas^G12C protein (Homo sapiens, UniProt P01116, G12C)	5.12

I = C=CC(=O)N1CCN2c3ncnc4cc(-c5ccc6oc(N)nc6c5)c(Cl)c(c34)OC[C@@H]2C1
II = C=CC(=O)N1CCN2c3ncnc4cc(-c5ccc(F)cc5Cl)c(Cl)c(c34)OC[C@@H]2C1
Incoming: Which value of pIC50 is greater, the one for I or the one for II ? To answer, give the label that identifies your chosen option.
Outgoing: II

a = C=CC(=O)N1CCN2c3nc(N4CCOCC4)nc4cc(-c5c(C)ccc6[nH]ncc56)c(Cl)c(c34)OC[C@@H]2C1 (single isomer, unassigned) [Example 71]
b = C=CC(=O)N1CCN2c3nc(N4CC(N(C)C)C4)nc4cc(-c5c(C)ccc6[nH]ncc56)c(Cl)c(c34)OC[C@@H]2C1 [Example 75]
Incoming: Which value of pIC50 is greater, the one for a or the one for b ? To answer, give the label that identifies your chosen option.
Outgoing: b

----------
# test system: GDP loaded biotinylated KRas^G12C protein (Homo sapiens, UniProt P01116, G12C)
# Construct: biotin (biotinylated); made in house
# test details: KRasG12C mass spectrometry adducting assay
# Format: binding
# cond: test compound final concentration 10 μM, 4 μM KRasG12C, react for 4 hours
property name: KRasG12C M.S. Binding Mean adduct % (%)

Some solved cases for reference:
compound	test system	val
C=CC(=O)N1CCN2c3nc(N4CCOCC4)nc4cc(-c5c(C)ccc6[nH]ncc56)c(Cl)c(c34)OC[C@@H]2C1 (single isomer, unassigned) [Example 72]	GDP loaded biotinylated KRas^G12C protein (Homo sapiens, UniProt P01116, G12C)	5
C=CC(=O)N1CCN2c3ncnc4cc(-c5c(C)cnc6[nH]ncc56)c(Cl)c(c34)OC[C@@H]2C1	GDP loaded biotinylated KRas^G12C protein (Homo sapiens, UniProt P01116, G12C)	53
C=CC(=O)N1CCN2c3ncnc4cc(-c5cccc6c(C)n(C)nc56)c(Cl)c(c34)OC[C@@H]2C1	GDP loaded biotinylated KRas^G12C protein (Homo sapiens, UniProt P01116, G12C)	49

1 = C=CC(=O)N1CCN2c3ncnc4cc(-c5c(O)cccc5OC)c(Cl)c(c34)OC[C@@H]2C1 (single isomer, unassigned) [Example 17]
2 = C=CC(=O)N1CCN2c3ncnc4cc(-c5ccc(F)cc5C)c(Cl)c(c34)OC[C@@H]2C1
3 = C=CC(=O)N1CCN2c3ncnc4cc(-c5cccc6nccnc56)c(Cl)c(c34)OC[C@@H]2C1
4 = C=CC(=O)N1CCN2c3ncnc4cc(-c5ccccc5C(=O)NC)c(Cl)c(c34)OC[C@@H]2C1
Incoming: Sort the compounds on KRasG12C M.S. Binding Mean adduct %; start with the lowest figure. Answer by listing the labels in the requested order.
Outgoing: 1, 4, 3, 2

I = C=CC(=O)N1CCN2c3ncnc4cc(-c5cccc6c5COCCO6)c(Cl)c(c34)OC[C@@H]2C1
II = C=CC(=O)N1CCN2c3ncnc4cc(-c5cc(CO)ccc5F)c(Cl)c(c34)OC[C@@H]2C1
III = C=CC(=O)N1CCN2c3nc(NCCN(C)C)nc4cc(-c5c(C)ccc6[nH]ncc56)c(Cl)c(c34)OC[C@@H]2C1 (single isomer, unassigned) [Example 79]
Incoming: Order the records by KRasG12C M.S. Binding Mean adduct %, with each subsequent value no larger than the one before. Answer by listing the labels in the requested order.
Outgoing: II, I, III

1 = C=CC(=O)N1CCN2c3ncnc4cc(-c5ccccc5CO)c(Cl)c(c34)OC[C@@H]2C1
2 = CN(C)C/C=C/C(=O)N1CCN2c3ncnc4cc(-c5c(O)cccc5F)c(Cl)c(c34)OC[C@@H]2C1
3 = C=CC(=O)N1CCN2c3ncnc4cc(-c5ccc(O)c(C#N)c5)c(Cl)c(c34)OC[C@@H]2C1
Incoming: Order the records by KRasG12C M.S. Binding Mean adduct %, with each subsequent value no larger than the one before. Answer by listing the labels in the requested order.
Outgoing: 2, 1, 3
(2: 76%, 1: 49%, 3: 0%)

----------
# test system: GDP loaded biotinylated KRas^G12C protein (Homo sapiens, UniProt P01116, G12C)
# Construct: biotin (biotinylated); made in house
# test details: KRasG12C functional assay
# Format: biochemical
# cond: HTRF FRET readout of SOS-mediated nucleotide exchange and GST-Raf RBD binding; samples incubated for 4 hrs; read-out: KRasG12C functional assay IC50 value
property name: IC50 (nM)

Some solved cases for reference:
compound	test system	IC50 [nM]
C=CC(=O)N1CCN2c3ncnc4cc(-c5cccc(N=S(C)(C)=O)c5)c(Cl)c(c34)OC[C@@H]2C1	GDP loaded biotinylated KRas^G12C protein (Homo sapiens, UniProt P01116, G12C)	6380
C=CC(=O)N1CCN2c3ncnc4cc(-c5c(O)cccc5Cl)c(Cl)c(c34)OC[C@@H]2C1 (single isomer, unassigned) [Example 16]	GDP loaded biotinylated KRas^G12C protein (Homo sapiens, UniProt P01116, G12C)	32
C=CC(=O)N1CCN2c3ncnc4cc(-c5c(O)cccc5C#N)c(Cl)c(c34)OC[C@@H]2C1 (single isomer, unassigned) [Example 19]	GDP loaded biotinylated KRas^G12C protein (Homo sapiens, UniProt P01116, G12C)	41800
C=CC(=O)N1CCN2c3ncnc4cc(-c5cccc(OC)c5O)c(Cl)c(c34)OC[C@@H]2C1	GDP loaded biotinylated KRas^G12C protein (Homo sapiens, UniProt P01116, G12C)	3030
C=CC(=O)N1CCN2c3ncnc4cc(-c5ccccc5Cl)c(Cl)c(c34)OC[C@@H]2C1	GDP loaded biotinylated KRas^G12C protein (Homo sapiens, UniProt P01116, G12C)	247

A = C=CC(=O)N1CCN2c3nc(NC4CCN(C5CC5)CC4)nc4cc(-c5c(C)ccc6[nH]ncc56)c(Cl)c(c34)OC[C@@H]2C1 (single isomer, unassigned) [Example 73]
B = C=CC(=O)N1CCN2c3ncnc4cc(-c5ccccc5F)c(Cl)c(c34)OC[C@@H]2C1
Incoming: Which value of IC50 is greater, the one for A or the one for B ? To answer, give the label that identifies your chosen option.
Outgoing: A
(A: 1900 nM, B: 437 nM)

a = C=CC(=O)N1CCN2c3ncnc4cc(-c5c(C)ccc6[nH]ncc56)cc(c34)OC[C@H]2C1
b = C=CC(=O)N1CCN2c3ncnc4cc(-c5cccc6c5COCCO6)c(Cl)c(c34)OC[C@@H]2C1
c = C=CC(=O)N1CCN2c3nc(N4CC(N(C)C)C4)nc4cc(-c5c(C)ccc6[nH]ncc56)c(Cl)c(c34)OC[C@@H]2C1 (single isomer, unassigned) [Example 76]
d = C=CC(=O)N1CCN2c3ncnc4cc(-c5c(O)cccc5F)c(Cl)c(c34)OC[C@@H]2C1 (single isomer, unassigned) [Example 10]
Incoming: Order the records by IC50, with each subsequent value no larger than the one before. Answer by listing the labels in the requested order.
Outgoing: c, a, b, d

1 = C=CC(=O)N1CCN2c3ncnc4cc(-c5c(C)cnc6[nH]ncc56)c(Cl)c(c34)OC[C@@H]2C1
2 = C=CC(=O)N1CCN2c3ncnc4cc(-c5cn(C)c6ccccc56)c(Cl)c(c34)OC[C@@H]2C1
Incoming: Identify the entry with the smaller IC50: 1 or 2 . To answer, give the label that identifies your chosen option.
Outgoing: 2
